Where these numbers come from: patent US20240247058A1

# TEST_SYSTEM: T1, human Tumour Necrosis Factor alpha (hTNFα) (human, UniProt P01375 77-233)
# T1 construct: Coated on ELISA plates, amine-coupled to the BIAcore chip, or biotinylated on Octet streptavidin sensors; soluble in the L929 assay; also called rhTNFα; hTNF-alpha
# T1 sequence (P01375 77-233 limits assumed): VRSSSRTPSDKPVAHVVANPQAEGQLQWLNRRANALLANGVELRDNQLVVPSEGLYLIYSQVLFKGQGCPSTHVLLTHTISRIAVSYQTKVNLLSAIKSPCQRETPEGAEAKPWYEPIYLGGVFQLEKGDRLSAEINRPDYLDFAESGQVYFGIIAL
# ASSAY_TEXT: kinetics on hTNFα, Table 1 (instrument for Ka/Kd not stated)
PROPERTY_NAME: koff (s⁻¹)
Give a bare numeral; the unit s⁻¹ is implied.

Input: Consider the binder TNF VNAR DIMER D1-D1 (VNAR) ARVDQTPQTITKETGESLTINCVLRDSHCATSSTYWYRKKSGSTNEESISKGGRYVETVNSGSKSFSLRINDLTVEDSGTYRCASECQYGLAEYDVYGGGTVVTVNGGGGSGGGGGSGAHSARVDQTPQTITKETGESLTINCVLRDSHCATSSTYWYRKKSGSTNEESISKGGRYVETVNSGSKSFSLRINDLTVEDSGTYRCASECQYGLAEYDVYGGGTVVTVNAAAHHHHHHGAAESKLISEEDL and give its measured koff.
Output: 0.000316
